Values from patent US20250313625A1

Biological target: T1, hFc tagged human LAG3 ECD recombinant protein (human, UniProt P18627 23-450)
T1 construct: range 23-450; also called biotin labelled hFc tagged human LAG3 ECD; not shown: human IgG Fc tag
T1 sequence (looked up): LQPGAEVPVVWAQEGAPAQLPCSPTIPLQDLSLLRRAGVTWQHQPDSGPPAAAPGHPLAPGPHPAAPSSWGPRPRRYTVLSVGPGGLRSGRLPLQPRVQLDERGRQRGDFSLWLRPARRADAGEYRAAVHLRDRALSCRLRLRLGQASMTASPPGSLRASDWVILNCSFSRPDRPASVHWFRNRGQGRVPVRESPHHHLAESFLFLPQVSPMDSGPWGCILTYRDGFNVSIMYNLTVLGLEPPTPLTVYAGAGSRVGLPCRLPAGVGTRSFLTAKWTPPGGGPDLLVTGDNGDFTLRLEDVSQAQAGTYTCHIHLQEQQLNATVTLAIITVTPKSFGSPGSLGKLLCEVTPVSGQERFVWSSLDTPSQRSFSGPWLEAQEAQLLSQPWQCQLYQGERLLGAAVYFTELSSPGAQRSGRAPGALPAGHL
Assay: competitive ELISA format II: biotin hFc-LAG3 ECD binding to coated His-FGL1
readout type: IC50 (nM)
Give the value, in units of nM, as a plain number.

Lookup result for hu023.10 (antibody, human IgG4, V domains shown, humanized from 023c) VH: QVQLVQSGPELKKPGASVKVSCKASGYTFTESPMNWVRQAPGQGFEWMGIIYTDTGEPTYAEEFKGRFVFSLDTSVSTAYLQISSLKAEDTAVYFCVSDYGSILYWYFDVWGQGTLVTVSS VL: DIQMTQSPSSLSASVGDRVTITCKASQDVSTAVAWYQQKPGKAPKLLIYSASYRYTGVPSRFSGSGSGTDFTLTISSLQPEDFATYYCQQHYNAPPTFGQGTKLEIK ; measured IC50: 1.3

Lookup result for hu023.04 (antibody, human IgG4, V domains shown, humanized from 023c) VH: QVQLVQSGAEVKKPGASVKVSCKASGYTFTESPMNWVRQAPGQGFEWMGIIYTDTGEPTYAEEFKGRVTMTRDTSTSTVYMELSSLRSEDTAVYFCASDYGSILYWYFDVWGQGTLVTVSS VL: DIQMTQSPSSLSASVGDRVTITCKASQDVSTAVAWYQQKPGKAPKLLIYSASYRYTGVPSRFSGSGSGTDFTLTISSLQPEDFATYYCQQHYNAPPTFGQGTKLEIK ; measured IC50: 1.7

Lookup result for hu023.07 (antibody, human IgG4, V domains shown, humanized from 023c) VH: QVQLVQSGPEVKKPGASVKVSCKASGYTFTESPMNWVRQAPGQGFEWMGIIYTDTGEPTYAEEFKGRVTMTLDTSTSTVYMELSSLRSEDTAVYFCASDYGSILYWYFDVWGQGTLVTVSS VL: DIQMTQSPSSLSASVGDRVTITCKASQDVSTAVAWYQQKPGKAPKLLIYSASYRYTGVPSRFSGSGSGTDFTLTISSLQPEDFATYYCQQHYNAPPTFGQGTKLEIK ; measured IC50: 1.5
